Experiment notes: Henry solubility constant Hcp at 298.15 K (mol/(m3 Pa))
Assay setup: reference: Gossett (1987)
Value type: Henry solubility constant Hcp

1) C=CCl    0.00037
2) ClC(Cl)=C(Cl)Cl    0.00056
3) ClC(Cl)(Cl)Cl    0.00033
4) CCCl    0.00088
5) CC(Cl)(Cl)Cl    0.00059
6) ClCCl    0.0046
7) C=C(Cl)Cl    0.00038
8) ClC=C(Cl)Cl    0.001

###

Experiment notes: Henry solubility constant Hcp at 293 K (mol/(m3 Pa))
Assay setup: reference: Rice et al. (1997b)
Value type: Henry solubility constant Hcp at 293 K

1. COP(=S)(OC)Oc1ccc([N+](=O)[O-])cc1    260
2. CCOP(=S)(OCC)Oc1nc(Cl)c(Cl)cc1Cl    3.1
3. CCc1cccc(C)c1N(C(=O)CCl)C(C)COC (centres undefined)    130
4. CCCN(CCC)c1c([N+](=O)[O-])cc(C(F)(F)F)cc1[N+](=O)[O-]    0.095
